Recorded koff, one value per entry.
- experimental-system: T1, pCD163-SRCR4-7-huFc (porcine, UniProt Q2VL90 372-818, limits assumed)
- T1 construct: also called pCD163:SRCR4-7-Fc; pCD163-SRCR4-7-Fc; not shown: human Fc (huFc)
- T1 sequence (Q2VL90 372-818 limits assumed): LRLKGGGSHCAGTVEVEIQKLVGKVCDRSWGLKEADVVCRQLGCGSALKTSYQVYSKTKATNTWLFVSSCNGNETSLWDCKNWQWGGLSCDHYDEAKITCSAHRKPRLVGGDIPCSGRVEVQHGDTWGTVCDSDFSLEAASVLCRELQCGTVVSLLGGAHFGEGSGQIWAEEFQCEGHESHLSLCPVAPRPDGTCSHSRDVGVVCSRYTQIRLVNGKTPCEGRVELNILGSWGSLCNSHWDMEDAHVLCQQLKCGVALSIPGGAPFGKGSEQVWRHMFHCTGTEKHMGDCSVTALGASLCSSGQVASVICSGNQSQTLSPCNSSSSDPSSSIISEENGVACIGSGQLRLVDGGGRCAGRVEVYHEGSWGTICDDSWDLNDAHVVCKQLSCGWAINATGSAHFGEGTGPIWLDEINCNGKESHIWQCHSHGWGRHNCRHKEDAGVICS
- measurement-notes: SPR (Biacore 3000), antigen amine-coupled on CM5, VHH injected, pH 7.4
Reply numerically in s⁻¹, unit not repeated.

Examples with answers:
{"binder": "VHH 016 (2H11) (VHH, Llama single domain antibody; also called 77(#16); VHCDR3 77(#16); not shown: tags: c-myc tag in periplasmic extract (ELISA, FACS); FLAG and His tags in purified VHH (SPR, infection assays)) VHH: EVQLVESGGGLVQAGGSLRLSCAASGRTFAPGSMGWFRQAPGKEREFVAAHRWSGSAYYADYADSVEGRFTISRDYAKNMVYLQMNSLKPGDTAVYYCAAGVGSAAQYTYWGRGTQVTVSS", "endpoint-value": 0.00674}
{"binder": "VHH 020 (3H11) (VHH, Llama single domain antibody; also called 48(#20); VHCDR3 48(#20); not shown: tags: c-myc tag in periplasmic extract (ELISA, FACS); FLAG and His tags in purified VHH (SPR, infection assays)) VHH: QVQLQESGGGLVQVGGSLRLSCVASGRTPSRYVMGWFRQAPGQEREFVAGIAWSGRAPYADSVKGRFVISRDSAKNTVYLQMNSLKSEDTGVYYCAGGEGAILWTTPGAYNYWGQGTQVTVSS", "endpoint-value": 0.00843}
{"binder": "VHH 023 (4E10) (VHH, Llama single domain antibody; also called 70(#23); VHCDR3 70(#23); not shown: tags: c-myc tag in periplasmic extract (ELISA, FACS); FLAG and His tags in purified VHH (SPR, infection assays)) VHH: QVQLVESGGGLVQAGGSLRLSCVASSRTSSTYAMGWFRQGPGKERDFVAIISFGGTFYADSVKGRFTISRDNAKNTVYLQMNSLKPEDTAVYYCAAGRTLSKRADSYASWGQGTQVTVSS", "endpoint-value": 0.00755}

Now for a further binder.
Input line: Query koff for VHH 011 (2B06) (VHH, Llama single domain antibody; also called 57(#11); VHCDR3 57(#11); not shown: tags: c-myc tag in periplasmic extract (ELISA, FACS); FLAG and His tags in purified VHH (SPR, infection assays)) VHH: EVQLVESGGGLVQAGGSLRLSCAASGRTLSVYGTGWFRQAPGKEREFVAGISGTTGSTLYADSVKGRFTISRDNAKNTVYLQMNSLKSEDTALYYCAAGGRVYITTSSWAYWGQGTQVTVSS
Output line: 0.0151
